Assay Notes: Selectivity index, ratio of GI50 for human HepG2 cells to IC50 for asexual intraerythrocytic ring stage of chloroquine-sensitive Plasmodium falciparum 3D7 infected in human O+ erythrocytes
Assay type: functional
Reported Endpoint: Selectivity Index
Note: the reply should be a number with no unit written.

Incoming: Which Selectivity Index is listed for S=C(NCCCNCCCCCNCCCNC(=S)NCCC(c1ccccc1)c1ccccc1)NCCC(c1ccccc1)c1ccccc1 ?
Outgoing: 666

Incoming: Can you look up the measured Selectivity Index of O=C(NCCCNCCCCCNCCCNC(=O)NCc1ccccc1)NCc1ccccc1 for me?
Outgoing: 2456

Incoming: What value of Selectivity Index has been reported for the following compound? O=C(NCCCNCCCCCNCCCNC(=O)NC(c1ccccc1)c1ccccc1)NC(c1ccccc1)c1ccccc1
Outgoing: 5113

Incoming: // returns reported Selectivity Index for input O=C(NCCCNCCCCCNCCCNC(=O)NCC(c1ccccc1)c1ccccc1)NCC(c1ccccc1)c1ccccc1
Outgoing: 3375

Incoming: For the compound S=C(NCCCNCCCCCNCCCNC(=S)NCC(c1ccccc1)c1ccccc1)NCC(c1ccccc1)c1ccccc1 , what Selectivity Index is on record?
Outgoing: 1305

Incoming: Which Selectivity Index value is on record for O=C(NCCCNCCCCCNCCCNC(=O)NCCC(c1ccccc1)c1ccccc1)NCCC(c1ccccc1)c1ccccc1 ?
Outgoing: 5090

Incoming: Find the recorded Selectivity Index belonging to S=C(NCCCNCCCCCNCCCNC(=S)NC(c1ccccc1)c1ccccc1)NC(c1ccccc1)c1ccccc1 and report it.
Outgoing: 659
